tested on: HCT-15 colon; experiment: NCI tumour cell line growth inhibition, 48 h

{"columns": ["compound", "assayed target", "TGI"],
 "data": [
  ["OCC1OC(n2cnc3c(/C=C(/O)c4ccccc4)ncnc32)C(O)C1O (centres undefined)", "HCT-15 colon", "> 100 µM"],
  ["O=C(OC[C@H]1O[C@@H](OC(=O)c2cc(O)c(O)c(O)c2)[C@H](OC(=O)c2cc(O)c(O)c(O)c2)[C@@H](OC(=O)c2cc(O)c(O)c(O)c2)[C@@H]1OC(=O)c1cc(O)c(O)c(O)c1)c1cc(O)c(O)c(O)c1", "HCT-15 colon", "> 100 µM"],
  ["O=[N+]([O-])c1ccc2c(c1)[O][Sn][O]2", "HCT-15 colon", "> 150 µg/mL"],
  ["CC(C)Oc1cc(O)c2c(c1)OCC=C2CCC(=O)O", "HCT-15 colon", "66.2 µM"],
  ["C=C1C(=O)O[C@H]2C[C@@]3(C)[C@H](O)CCC(=C)[C@@H]3[C@@H](OC(C)=O)[C@H]12", "HCT-15 colon", "7.93 µM"],
  ["C=CC[C@@]1(C(=O)OC)[C@H](Sc2ccccc2)C1(C)C", "HCT-15 colon", "> 100 µM"],
  ["COc1ccc(Cl)cc1Nc1nc(C(F)(F)F)ccc1C(=O)N/N=C/c1cc(OC)c(OC)c(OC)c1", "HCT-15 colon", "11.9 µM"],
  ["CC1(COS(=O)(=O)OCC2(C)COS(=O)(=O)OC2)COS(=O)(=O)OC1", "HCT-15 colon", "> 100 µM"],
  ["O=c1oc2ccc(Cl)cc2cc1-c1cn2cc(Cl)ccc2n1", "HCT-15 colon", "> 100 µM"],
  ["O=C([CH-]C(=O)C(F)(F)F)c1ccccc1.O=C([CH-]C(=O)C(F)(F)F)c1ccccc1.O=C([CH-]C(=O)C(F)(F)F)c1ccccc1.O=C([CH-]C(=O)C(F)(F)F)c1ccccc1.[Eu+3].c1ccncc1", "HCT-15 colon", "> 100 µM"],
  ["COc1cc2c(/C=C3/C(=O)N(c4ccccc4)c4ccccc43)c(Cl)[nH]c2cc1C", "HCT-15 colon", "11.4 µM"],
  ["CCN(CC)CCCC(C)Nc1c2ccc(C)cc2nc2ccc(OC)cc12 (centres undefined)", "HCT-15 colon", "13.1 µM"],
  ["NC(N)=NS(=O)(=O)c1ccc(NC(=O)c2ccc3nc4ccccc4c(Nc4ccc(S(N)(=O)=O)cc4)c3c2)cc1", "HCT-15 colon", "> 100 µM"],
  ["O=c1[nH]c(Nc2cccc(Cl)c2)nc2nc[nH]c12", "HCT-15 colon", "> 100 µM"],
  ["C[n+]1c2ccccc2c(C(=O)Nc2ccc(S(=O)(=O)N=C(N)N)cc2)c2ccccc21", "HCT-15 colon", "> 100 µM"],
  ["COc1cc(Cn2c(-c3nonc3N)nc3ccccc32)ccc1C", "HCT-15 colon", "> 100 µM"],
  ["O=S1(=O)c2ccccc2NC(=S)CC1c1ccccc1 (centres undefined)", "HCT-15 colon", "> 100 µM"],
  ["NCCCCNCCCNC(=O)c1nc(-c2csc(CCN)n2)sc1Cl", "HCT-15 colon", "> 100 µM"],
  ["C=C1C(=O)OC2/C=C(\\C=O)CC/C=C(\\C)C(O)C[C@@H]12 (some centres undefined)", "HCT-15 colon", "14.9 µM"],
  ["CC(=O)OC1[C@H]2c3cc4c(cc3CN3CCC(=C[C@@H]1O)C23)OCO4 (some centres undefined)", "HCT-15 colon", "> 100 µM"],
  ["CC(=O)Nc1ccc(S(=O)(=O)NNC(=O)c2cccnc2Nc2ccc(Cl)cc2)cc1", "HCT-15 colon", "> 100 µM"],
  ["COC(=O)c1nc(N)[nH]c(=O)c1CCCCCc1c(C(=O)OC)nc(N)[nH]c1=O", "HCT-15 colon", "> 50 µM"],
  ["O=C1CCCN1CC#CCN1CCCC1", "HCT-15 colon", "> 100 µM"],
  ["Cc1nc(C(N)=S)sc1C(=O)C/C(=N/N)C(=O)Nc1cccc(Cl)c1C", "HCT-15 colon", "> 100 µM"],
  ["CC(C)(C)NC(=O)[C@H]1C[C@H]2CCCC[C@H]2CN1C[C@@H](O)[C@H](Cc1ccccc1)NC(=O)[C@H](CC(N)=O)NC(=O)c1ccc2ccccc2n1", "HCT-15 colon", "33.8 µM"],
  ["CC(=O)OCC=C(CCl)CCC(Br)C(C)(C)Br (mixture of isomers)", "HCT-15 colon", "> 10 µM"],
  ["C[N+]1(C)C/C(=C\\c2ccncc2)C(=O)/C(=C/c2ccncc2)C1", "HCT-15 colon", "> 100 µM"],
  ["COC1CC(OC(=O)c2ccccc2)C(OC(=O)c2ccccc2)C(C)O1 (centres undefined)", "HCT-15 colon", "> 100 µM"],
  ["COc1cc2nc(-c3ccc(C(F)(F)F)cc3)cc(OCCCN3CCCCC3)c2cc1OC", "HCT-15 colon", "10.1 µM"],
  ["C=C(C)C1CC=C(C)C2(C1)OCC(C)(C)C(C)O2 (centres undefined)", "HCT-15 colon", "33.9 µM"],
  ["OC12CC/C(=N/OCc3ccccc3)CC1c1ccccc12 (centres undefined)", "HCT-15 colon", "> 100 µM"],
  ["Nc1cc(N2CCCC2)nc(=O)n1Cc1ccccc1", "HCT-15 colon", "> 100 µM"],
  ["Cc1ccc(NC(=O)Cn2c(Br)nc3c2c(=O)n(C)c(=O)n3C)cc1", "HCT-15 colon", "29.3 µM"],
  ["Cc1ccc(C(=O)/C(C#N)=C/Nc2c(C)n(C)n(-c3ccccc3)c2=O)cc1", "HCT-15 colon", "> 100 µM"],
  ["Cc1ccc2c(c1)C(c1cccc3ccccc13)OC2=O (centres undefined)", "HCT-15 colon", "> 100 µM"],
  ["CN(C)C(=O)O[C@@H]1CN[C@@H](C#Cc2cc3ncnc(Nc4ccc(OCc5cccc(F)c5)c(Cl)c4)c3s2)C1", "HCT-15 colon", "> 25 µM"],
  ["Cn1c2ccccc2c2c3c(c4c5ccccc5n(C)c4c21)C(=O)c1ccccc1C3=O", "HCT-15 colon", "> 100 µM"],
  ["C[C@]12CC[C@@H]3c4ccc(OC(=O)c5ccccc5)cc4CC[C@H]3[C@@H]1CC[C@@H]2Oc1c2ccccc2nc2ccccc12", "HCT-15 colon", "31.5 µM"],
  ["Oc1ccc(CCc2cc(O)cc(O)c2)cc1", "HCT-15 colon", "> 100 µM"]
]}
